# subjectOfTest: pseudo-kinase domain (JH2, amino-acids 536-812 with 3 surface mutations W659A, W777A, F794H) of human Wild Type JAK2 (Homo sapiens, UniProt O60674, F794H/W659A/W777A)
# Construct: pseudo-kinase domain (JH2, amino-acids 536-812 with 3 surface mutations W659A, W777A, F794H); His (C); Avi (biotinylated) (C)
# Sequence (O60674 536-812 W659A/W777A/F794H): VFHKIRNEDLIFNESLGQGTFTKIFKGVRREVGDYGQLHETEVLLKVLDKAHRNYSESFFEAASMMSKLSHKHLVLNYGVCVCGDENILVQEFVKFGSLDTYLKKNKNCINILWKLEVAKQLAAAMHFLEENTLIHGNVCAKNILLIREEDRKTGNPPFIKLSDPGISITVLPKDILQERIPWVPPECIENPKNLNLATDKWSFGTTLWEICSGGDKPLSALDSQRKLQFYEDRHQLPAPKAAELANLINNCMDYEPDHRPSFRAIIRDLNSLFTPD
# protocolDescription: JAK2 LanthaScreen JH2-WT Binding Assay
# condition: JAK2 JH2-WT (0.145 nM), 50 nM Fluorescent JAK2-JH2 Tracer, 1 hour at 25° C.; read-out: JH2 BIND WT
metricName: IC50

Cn1c(=O)n(C2CCCCC2)c2c3cc(-c4ccc(CN5CCC(S(C)(=O)=O)CC5)cc4)[nH]c3ncc21	10 to 100 nM
Cn1ncc2cc(-c3c(-c4ccc(CN5CCC(S(C)(=O)=O)CC5)cc4)[nH]c4ncc5c(c34)n(C3CCCC3)c(=O)n5C)ccc21	≤ 10 nM
CC(=O)NC1CCC(n2c(=O)n(C)c3cnc4[nH]c(-c5cnn(CC(C)(C)O)c5)c(-c5ccc6c(cnn6C)c5)c4c32)CC1 (centres unmarked)	≤ 10 nM
CCOC(=O)N[C@H]1C[C@@H](n2c(=O)n(C)c3cnc4[nH]c(-c5cnn(C)c5)c(-c5ccc(C#N)cc5)c4c32)C1	≤ 10 nM

Please state, for each entry, its recorded IC50.
1. CC(C)n1c(=O)n(C)c2cnc3[nH]c(-c4cnn(CC(C)(C)O)c4)c(-c4cc5c(s4)CCN(S(C)(=O)=O)C5)c3c21
2. Cn1ncc2cc(-c3c(-c4ccncc4)[nH]c4ncc5c(c34)n(C3CCCC3)c(=O)n5C)ccc21
3. Cn1ncc2cc(-c3c(C(O)C4CC4)[nH]c4ncc5c(c34)n(C3CCOCC3)c(=O)n5C)ccc21 (centres unmarked)
4. Cn1cc(-c2[nH]c3ncc4c(c3c2-c2ccc3c(cnn3C)c2)n([C@H]2C[C@@H](CC#N)C2)c(=O)n4C)cn1
5. CC(C)n1c(=O)n(C)c2cnc3[nH]c(-c4cnn(CC(C)(C)O)c4)c(-c4cc5c(s4)CCNC5)c3c21

Out:
1: ≤ 10 nM; 2: ≤ 10 nM; 3: ≤ 10 nM; 4: ≤ 10 nM; 5: 100 to 500 nM

Please state, for each entry, its recorded IC50.
1. CC(C)n1c(=O)n(C)c2cnc3[nH]c(-c4ccc(CN5CCC(S(C)(=O)=O)CC5)cc4)c(-c4ccc(C#N)cc4)c3c21
2. Cn1c(=O)n([C@H]2CCCOC2)c2c3c(-c4ccccc4)c(-c4ccc(CN5CCC(S(C)(=O)=O)CC5)cc4)[nH]c3ncc21
3. COc1nn(C)cc1-c1[nH]c2ncc3c(c2c1-c1ccc2c(cnn2C)c1)n(C1CCOCC1)c(=O)n3C

Out:
≤ 10 nM
≤ 10 nM
≤ 10 nM

Please state, for each entry, its recorded IC50.
1. Cn1c(=O)n(C)c2c3c(-c4ccccc4)c(-c4cccnc4)[nH]c3ncc21
2. CC(C)n1c(=O)n(C)c2cnc3[nH]c(-c4cnn(CC(C)(C)O)c4)c(-c4ccc5c(cnn5C)c4)c3c21

Out:
["500 to 1000 nM", "≤ 10 nM"]

====

Kindly state pIC50 for each of the entries shown.
# subjectOfTest: catalytic domain (JH1, amino acids 826-1132) of human JAK2 (Homo sapiens, UniProt O60674)
# Construct: catalytic domain (JH1, amino acids 826-1132) of human JAK2; FLAG (N)
# Sequence (O60674 826-1132): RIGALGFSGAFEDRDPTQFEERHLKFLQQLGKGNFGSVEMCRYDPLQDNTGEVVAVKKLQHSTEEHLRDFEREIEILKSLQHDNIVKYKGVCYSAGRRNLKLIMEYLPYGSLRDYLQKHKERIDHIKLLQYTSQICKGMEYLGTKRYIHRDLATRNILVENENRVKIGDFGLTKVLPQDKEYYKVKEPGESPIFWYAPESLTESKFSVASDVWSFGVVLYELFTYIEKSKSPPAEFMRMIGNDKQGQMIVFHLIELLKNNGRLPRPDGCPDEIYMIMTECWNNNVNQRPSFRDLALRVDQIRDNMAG
# protocolDescription: JAK2 LanthaScreen JH1 Binding Assay
# condition: JAK2 JH1 (1.5 nM), 50 nM fluorescent JAK2-JH1 tracer, 2 hours at 25° C.; read-out: JH1 BIND
pIC50: −log10 of the molar value.

CCN1CCN(c2ccc(-c3cc4c(ncc5c4n(-c4ccccn4)c(=O)n5C)[nH]3)cc2)CC1	< 6.00
Cn1c(=O)n(-c2ccccc2)c2c3cc(-c4ccc(CN5CCC(S(C)(=O)=O)CC5)cc4)[nH]c3ncc21	7.00 to 8.00

Please state, for each entry, its recorded pIC50.
1. Cn1c(=O)n(C2CCCC2)c2c3c(-c4ccccc4)c(-c4cnn(CS(C)(=O)=O)c4)[nH]c3ncc21
2. COc1nn(C)cc1-c1[nH]c2ncc3c(c2c1-c1ccc2c(cnn2C)c1)n(C1CCOCC1)c(=O)n3C

Out:
1. 6.30 to 7.00
2. < 6.00

Please state, for each entry, its recorded pIC50.
1. Cn1cc(-c2[nH]c3ncc4c(c3c2-c2ccc3c(cnn3C)c2)n(C2CCOCC2)c(=O)n4C)cn1
2. Cn1ncc2cc(-c3c(-c4cnn(CC(F)F)c4)[nH]c4ncc5c(c34)n(C3CCCC3)c(=O)n5C)ccc21

Out:
["< 6.00", "6.30 to 7.00"]

Please state, for each entry, its recorded pIC50.
1. CC(C)n1c(=O)n(C)c2cnc3[nH]c(-c4cnn(CC(C)(C)O)c4)c(-c4ccc(C5(C#N)CC5)cc4)c3c21
2. CC(C)n1c(=O)n(C)c2cnc3[nH]c(-c4cnn(CC(C)(C)O)c4)c(-c4ccn5cncc5c4)c3c21

Out:
1: 6.00 to 6.30; 2: < 6.00
